From: patent US20230053152A1

Give IC50 for every item shown.
system: BRD4 (BD1) (Homo sapiens, UniProt O60885)
Construct: on the BRD4 (BD1, BD2, BD1+BD2) protein; GST
experimentDescription: Binding inhibition of BRD4 (BD1), same manner as Test Example 1
setupConditions: AlphaScreen, acetyl-histone H4 peptide

Please review the following examples before continuing.
compound	experimentalValue
COc1cc(OC)c2c(=O)[nH]c(-c3cc(C)c(OCCO)c(C)c3)cc2c1 [BBC0204, reference compound]	35.1 µM
O=c1[nH]c2ccc(-c3oc4cc(O)cc(O)c4c(=O)c3O)cc2[nH]1	15.5 µM

Here is the next item to consider.
Which IC50 is reported for this compound? COc1cc(OC)c2[nH]c(-c3cc(C)c(OCCO)c(C)c3)nc2c1 [BBC0206, reference compound]
> 50 µM

---

Give IC50 for every item shown.
system: BRD2 (BD2) (Homo sapiens, UniProt P25440)
Construct: 100 nM GST-BRD2 (BD1, BD2, BD1+BD2)
Sequence (P25440 344-453 limits assumed): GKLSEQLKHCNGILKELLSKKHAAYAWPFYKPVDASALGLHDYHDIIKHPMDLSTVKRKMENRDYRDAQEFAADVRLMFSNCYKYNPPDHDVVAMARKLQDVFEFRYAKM
experimentDescription: AlphaScreen binding inhibition of GST-BRD2 (BD2) and tetraacetylated histone H4 peptide
setupConditions: acetyl-histone H4 peptide
Numbers only, in µM.

Please review the following examples before continuing.
O=c1[nH]c2ccc(-c3oc4cc(O)cc(O)c4c(=O)c3O)cc2o1 5.11
O=c1c(O)c(-c2ccc3c(c2)CCO3)oc2cc(O)cc(O)c12 3.79

Here is the next item to consider.
Which IC50 is reported for this compound? O=c1c(O)c(-c2ccc3ccoc3c2)oc2cc(O)cc(O)c12
0.499

---

system: BRD3 (BD1) (Homo sapiens, UniProt Q15059)
Construct: on the BRD3 (BD1, BD2, BD1+BD2) protein; GST
Sequence (Q15059 34-140 limits assumed): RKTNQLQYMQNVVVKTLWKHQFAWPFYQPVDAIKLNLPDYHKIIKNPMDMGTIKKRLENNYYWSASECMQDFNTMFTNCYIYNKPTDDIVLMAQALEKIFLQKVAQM
experimentDescription: Binding inhibition of BRD3 (BD1), same manner as Test Example 1
setupConditions: AlphaScreen, acetyl-histone H4 peptide
valueKind: pIC50
Numbers only, as −log10 of the molar value.

O=c1c(O)c(-c2ccc3c(c2)OCC3)oc2cc(O)cc(O)c12 5.58
O=c1c(O)c(-c2ccc3[nH]ccc3c2)oc2cc(O)cc(O)c12 5.10
O=c1c(O)c(-c2ccc3c(c2)CCCO3)oc2cc(O)cc(O)c12 5.84
COc1cc(OC)c2c(=O)[nH]c(-c3cc(C)c4c(c3)CCO4)nc2c1 4.95
O=c1c(O)c(-c2ccc3c(c2)CCO3)oc2cc(O)cc(O)c12 5.14

Dear reader, for each entry below, please note its pIC50.
1. O=c1c(O)c(-c2ccc3ccoc3c2)oc2cc(O)cc(O)c12
2. O=c1[nH]c2ccc(-c3oc4cc(O)cc(O)c4c(=O)c3O)cc2o1
3. O=c1c(O)c(-c2ccc(O)c(OC3COC3)c2)oc2cc(O)cc(O)c12
4. Cc1cc(-c2oc3cc(O)cc(O)c3c(=O)c2O)cc(C)c1OC1COC1
5. O=c1c(O)c(-c2ccc3occc3c2)oc2cc(O)cc(O)c12
6. O=c1c(O)c(-c2ccc3cc[nH]c3c2)oc2cc(O)cc(O)c12

5.72
4.77
5.50
5.85
5.49
5.14

Dear reader, for each entry below, please note its pIC50.
1. Cc1cc(-c2oc3cc(O)cc(O)c3c(=O)c2O)cc(O)c1OC1COC1
2. Cc1cc(-c2oc3cc(O)cc(O)c3c(=O)c2O)cc(OC2COC2)c1O

5.52
5.03
